# Tested on: T-47D breast
# Measurement Protocol: NCI-60 one-dose screen, 48 h (100 = growth as untreated, 0 = no growth, -100 = all killed)
# Protocol Conditions: 10 µM unless noted
This is part of a sample that, as a whole, favours compounds with a hit. Of some 83,000 tested, about 20% had one in any assay.
Measured Metric: growth (%)
The reply should contain only the number, in %.

Exercise: Item Cc1ccc2c(c1)ncn2-c1ncnc2c1CC(C)c1ccccc1N2C (stereo not drawn) has what recorded growth?
Key: 24.4

Exercise: // query: CCSc1nnc(NC(=O)Cc2ccc(Cl)cc2)s1
Key: 96.2

Exercise: // query: O=S(=O)(NCCCNc1cc(-c2cn(-c3ccccc3)nc2-c2cccc(O)c2)ccn1)c1ccc(Cl)cc1
Key: 8.59

---

# System: SF-295 CNS
# Measurement Protocol: NCI-60 one-dose screen, 48 h
# Protocol Conditions: 10 µM unless noted
# Procedure: Cells are grown in 96 well plates and exposed to the test compound for 48 hours. Compounds are tested at a single concentration, which is 10^-5 M for most compounds. The reported endpoint is percent growth (GI% or GIPRCNT), where numbers from 0 - 100% represent growth inhibition, and numbers from -100% - 0 represent cell death. For example, a value of 40 represents 60% growth inhibition. A value of 0 means no net growth occurred over the course of the experiment. […]
About 83,000 compounds went through this panel and 20% of them were active in at least one assay; those are over-represented in the sample as a whole. Activity calls are given as the source filed them. The calls were made as follows: active = growth percent below 10; inactive = the rest.
Respond using exactly one of the listed classes: true (1) (active), false (0) (inactive)

Here are 4 molecules together with their reported answers.
Exercise: How was COc1ccc(NC(=O)CSc2nc3ccc(Cl)cc3c(=O)n2-c2ccccc2C(F)(F)F)c(OC)c1OC classified in this test?
Key: false (0)

Exercise: // query: Cc1ccc(S(=O)(=O)OC2COCOC2C(OS(=O)(=O)c2ccc(C)cc2)C2OCOCC2OS(=O)(=O)c2ccc(C)cc2)cc1 (stereo not given)
Key: false (0)

Exercise: // query: O=c1c2cccc3c(Nc4ccc(F)cc4)ccc(c32)c2nc3ccccc3n12
Key: false (0)

Exercise: // query: O=S(=O)(NCCCNc1cc(-c2cn(-c3ccccc3)nc2-c2cccc(O)c2)ccn1)c1cccc(F)c1
Key: true (1)

More entries:
Exercise: How was Clc1ccc2c(c1)NC1(CCSc3ccccc31)n1nccc1-2 (stereo not given) classified in this test?
Key: false (0)

Exercise: // query: COc1ncc(-c2ccc3ncnc(Nc4cccc(Cl)c4)c3c2)cc1NS(=O)(=O)CCN1CCOCC1
Key: true (1)

Exercise: // query: COc1cccc(-c2nc3sccn3c2-c2ccnc(NCCNS(=O)(=O)c3ccccc3)n2)c1
Key: false (0)

Exercise: // query: CN1CCN(c2ccc3cc(-c4nc5ccccc5[nH]4)c(=O)oc3c2)CC1
Key: false (0)

Exercise: // query: O=C(NCCCN1CCN(CCCNC(=O)C2CCCCC2)CC1)C1CCCCC1
Key: false (0)

Exercise: // query: COc1cc(CCn2nnc3c(NCCCCO)ncnc32)cc(OC)c1
Key: false (0)

Exercise: // query: COC(=O)CCCCN=Cc1c(O)c(O)c(C(C)C)c2cc(C)c(-c3c(C)cc4c(C(C)C)c(O)c(O)c(C=NCCCCC(=O)OC)c4c3O)c(O)c12
Key: true (1)

Exercise: // query: CCc1cccc(C)c1NC(=O)c1sc2nc3c(cc2c1N)C(=O)CCC3
Key: false (0)
